Test system: mice
assay summary: In Vivo Antagonism of Clonidine-Induced Anti-Nociception (phenyl-p-quinone writhing)
measurement conditions: Mus musculus, sc, read-out: % A, Antagonism of Clonidine Analgesia; 10 mg/kg s.c.
readout kind: responders at 10 mg/kg (%)
Respond with the bare value in %.

These solved cases illustrate the format of a correct answer.
Memo: CN1c2c(Cl)cccc2CC1C1=NCCN1 (stereo not shown) , reported responders at 10 mg/kg: 100

Memo: C[C@@H]1c2ccccc2N(C)[C@@H]1C1=NCCN1 (relative stereo) , reported responders at 10 mg/kg: 0

Memo: Cn1c(CC2=NCCN2)cc2ccccc21 , reported responders at 10 mg/kg: 50

Lab note: next compound to report on.
Memo: CCCCN1c2ccccc2CC1C1=NCCN1 (stereo not shown) , reported responders at 10 mg/kg: 100
